Every entry's value here was drawn from ChEMBL document CHEMBL1944552.

# assay remarks: Inhibition of human recombinant His-tagged cPLA2alpha expressed in baculovirus-infected Sf9 cells assessed as residual activity at 10 uM after 1 hr by RP-HPLC analysis
endpoint label: Activity (%)
Could you give me the number in %? Just the number is fine.

Recorded results for 8 compounds are shown here.
- Cc1cc(-c2ccc(/N=N/c3c(S(=O)(=O)O)cc4cc(S(=O)(=O)O)cc(N)c4c3O)c(C)c2)ccc1/N=N/c1ccc2c(S(=O)(=O)O)ccc(N)c2c1O: 87.5
- CCCCCCCCCCCCCCCCCC1=NCCN1CS(=O)(=O)O: 94.7
- CCCCCCCCCCCCCCCCOc1ccc(S(=O)(=O)N/N=c2/sc3ccc(S(=O)(=O)O)cc3n2C)cc1C(=O)O: 70.2
- CCCCCCCCCCCCCCCC1=NN(c2ccc(S(=O)(=O)O)cc2)C(=O)C1/N=N/c1ccccc1 (stereo unspecified): 77.1
- CCCCCCCCCCCCCCCCCC1=NCCN1CCN(CS(=O)(=O)O)CS(=O)(=O)O: 106
- CCCCCCCCCCCCCCCc1cc(=O)n(-c2ccc(NC(=O)/C=C/C(=O)O)cc2)n1C: 92.6
- COc1cc(/N=N/c2ccc3cc(S(=O)(=O)O)cc(S(=O)(=O)O)c3c2)ccc1/N=N/c1ccc(NC(=O)c2ccc(NC(=O)c3ccccc3)cc2)cc1C: 62.7
- CCCCCCCCCCCCCCCc1nnc(SCC(=O)O)[nH]1: 85.1

If you can, please state the reported Activity value of "Cc1cc(N)ccc1/N=N/c1ccc(/N=N/c2ccc(/N=N/c3ccc4cc(S(=O)(=O)O)cc(S(=O)(=O)O)c4c3)c(C)c2)c(C)c1" . 81.9

Need Activity, item "CCCCCCCCCCCCCCCCN(C)c1ccc(S(=O)(=O)O)cc1[N+](=O)[O-]" 61.4

// Activity lookup, key: "CCCCCCCCCCCCCCCCOc1ccc(C(=O)O)cc1" 88.4
